Cited source for all entries: patent US20250243281A1

Molecular target: T1, hKLRF1 (human, UniProt Q9NZS2 1-231)
T1 construct: Overexpressed on HEK293 cells
T1 sequence: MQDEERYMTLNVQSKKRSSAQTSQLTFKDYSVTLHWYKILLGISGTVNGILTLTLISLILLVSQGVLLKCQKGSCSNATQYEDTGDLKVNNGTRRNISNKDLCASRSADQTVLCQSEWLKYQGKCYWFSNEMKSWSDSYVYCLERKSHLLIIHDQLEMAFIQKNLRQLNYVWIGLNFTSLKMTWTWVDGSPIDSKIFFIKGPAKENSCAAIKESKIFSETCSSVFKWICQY
Experiment: flow cytometry, HEK293 transfectants, 100 nM antibody;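 further: antibody applied at a saturating level and incubated with cells for 30 min at room temperature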
recorded endpoint: % of CD161 binding
In your response, put the unit directly after the numeric value.

Field request: % of CD161 binding | item: Ab18 (antibody, human IgG1, V domains shown, IgG purified from yeast culture) VH: QVQLVESGGGLVKPGGSLRLSCAASGFTFSQYYMSWIRQAPGKGLEWVSYISPSGATIAYADSVKGRFTISRDNAKNSLYLQMNSLRAEDTAVYYCARSLMATGTHLYFDLWGRGTLVTVSS VL: DIQLTQSPSSVSASVGDRVTITCRASQGISSWLAWYQQKPGKAPKLLIYAAESLQSGVPSRFSGSGSGTDFTLTISSLQPEDFATYYCQQVTSQPPYTFGGGTKVEIK
0.121%
